system: A549 lung carcinoma cell line bearing KRas^G12S oncogenic mutation; test: Cell proliferation inhibition (MTS), A549; format: cell-based; conditions: Homo sapiens, 72 h incubation, MTS, compounds 1-53, median from experimental results
value kind: pIC50
Please express pIC50 as -log10 of the molar concentration.

# lookup: pIC50 of COc1cc2c(cc1OCCc1cccc(O)c1)C(c1ccc(C)cc1C)N(C(=O)NCc1ccccn1)CC2 (stereo not shown) [Compound 20]
6.12

Which pIC50 is reported for this compound? COc1cc2c(cc1OCCc1cccc(O)c1)C(c1ccc(C)cc1C)N(C(=O)NCc1cocn1)CC2 (stereo not shown) [Compound 18]
5.71
